Target: NACHT, LRR and PYD domains-containing protein 3 (Homo sapiens)
Sequence (Q96P20 whole entry, the tested form may be a part): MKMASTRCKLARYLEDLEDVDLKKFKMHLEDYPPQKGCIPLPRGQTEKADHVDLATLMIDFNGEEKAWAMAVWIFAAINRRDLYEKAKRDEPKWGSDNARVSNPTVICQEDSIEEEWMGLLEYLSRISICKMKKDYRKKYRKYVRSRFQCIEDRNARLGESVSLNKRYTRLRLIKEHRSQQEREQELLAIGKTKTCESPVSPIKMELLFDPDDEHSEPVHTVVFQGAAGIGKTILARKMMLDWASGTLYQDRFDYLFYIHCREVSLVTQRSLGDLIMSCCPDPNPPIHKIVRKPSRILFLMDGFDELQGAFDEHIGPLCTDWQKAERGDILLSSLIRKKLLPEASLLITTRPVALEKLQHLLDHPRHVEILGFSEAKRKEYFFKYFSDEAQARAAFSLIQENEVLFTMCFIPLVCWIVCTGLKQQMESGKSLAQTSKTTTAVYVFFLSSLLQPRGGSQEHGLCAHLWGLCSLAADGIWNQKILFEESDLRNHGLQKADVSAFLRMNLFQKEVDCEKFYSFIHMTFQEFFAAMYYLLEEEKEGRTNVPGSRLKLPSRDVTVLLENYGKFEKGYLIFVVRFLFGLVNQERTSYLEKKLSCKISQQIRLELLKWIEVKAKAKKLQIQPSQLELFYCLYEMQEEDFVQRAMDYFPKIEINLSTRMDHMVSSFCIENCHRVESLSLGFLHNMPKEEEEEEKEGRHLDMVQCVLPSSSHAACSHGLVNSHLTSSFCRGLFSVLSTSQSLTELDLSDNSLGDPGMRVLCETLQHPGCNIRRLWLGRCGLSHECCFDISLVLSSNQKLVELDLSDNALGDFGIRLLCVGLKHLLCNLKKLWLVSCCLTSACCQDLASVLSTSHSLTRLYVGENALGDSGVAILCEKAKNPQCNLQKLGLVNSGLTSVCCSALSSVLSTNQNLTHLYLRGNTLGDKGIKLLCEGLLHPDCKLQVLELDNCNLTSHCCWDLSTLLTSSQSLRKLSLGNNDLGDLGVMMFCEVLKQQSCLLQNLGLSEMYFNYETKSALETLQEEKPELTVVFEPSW
QUANTITY: IC50 (µM)

1. O=C(O)c1ccc(/C=C2\SC(=S)N(Cc3cccc(C(F)(F)F)c3)C2=O)cc1; 5.33
